Reported pIC50 by item:
Tgt: His-CREBBP (1081-1197) bromodomain (Homo sapiens (Human))
Sequence (Q92793 1081-1197): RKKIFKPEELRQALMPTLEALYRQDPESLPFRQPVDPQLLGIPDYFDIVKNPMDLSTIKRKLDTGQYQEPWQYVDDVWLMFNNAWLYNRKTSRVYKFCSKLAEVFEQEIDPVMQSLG
Assay method text: AlphaScreen in-vitro binding assay for CREBBP
Condition label: biochemical
pIC50 here is simply -log10 of the concentration when that concentration is written in mol/L.

Compound	Tgt	pIC50
Cc1cc(N2C(=O)c3nn(C(C)C)c(C)c3C2c2ccc(Cl)cc2)cn(C)c1=O (stereo not shown) [Example 64]	His-CREBBP (1081-1197) bromodomain (Homo sapiens (Human))	6.40
Cc1nn(C(=O)N(C)C)c2c1[C@@H](c1ccc(Cl)cc1)N(c1cc(C)c3nnc(C)n3c1)C2=O [Example 149]	His-CREBBP (1081-1197) bromodomain (Homo sapiens (Human))	5.16
COc1ncccc1-n1nc2c(c1C)C(c1ccc(Cl)cc1F)N(c1cc(C)c3nnc(C)n3c1)C2=O (stereo not shown) [Example 194]	His-CREBBP (1081-1197) bromodomain (Homo sapiens (Human))	5.28
Cc1nn(C(C)C)c2c1[C@@H](c1ccc(Cl)cc1)N(c1cc(C)c(=O)n(C)c1)C2=O [Example 104]	His-CREBBP (1081-1197) bromodomain (Homo sapiens (Human))	5.92
CCc1nn(C2CC2)c2c1[C@@H](c1ccc(Cl)cc1)N(c1cc(C)c3nnc(C)n3c1)C2=O [Example 107]	His-CREBBP (1081-1197) bromodomain (Homo sapiens (Human))	5.16
COc1ncc(-n2nc3c(c2C(C)C)[C@@H](c2ccc(Cl)cc2)N(c2cc(C)c4onc(C)c4c2)C3=O)c(OC)n1 [Example 62]	His-CREBBP (1081-1197) bromodomain (Homo sapiens (Human))	5.77
Cc1cc(N2C(=O)c3nn(C)c(C)c3C2c2ccc(Cl)cc2)cn(C)c1=O (stereo not shown) [Example 28]	His-CREBBP (1081-1197) bromodomain (Homo sapiens (Human))	5.48
Cc1nn(C(C)C)c2c1[C@@H](c1ccc(Cl)cc1F)N(c1cc(C)c3nnc(C)n3c1)C2=O [Example 189]	His-CREBBP (1081-1197) bromodomain (Homo sapiens (Human))	5.42
CCn1nc2c(c1C)C(c1ccc(Cl)cc1F)N(c1cc(C)c(=O)n(C)c1)C2=O (stereo not shown) [Example 171]	His-CREBBP (1081-1197) bromodomain (Homo sapiens (Human))	5.82
CCc1nn(CCO)c2c1C(c1ccc(Cl)cc1)N(c1cc(C)c(=O)n(C)c1)C2=O (stereo not shown) [Example 78]	His-CREBBP (1081-1197) bromodomain (Homo sapiens (Human))	5.51

Qu. Please provide the recorded pIC50 for Cc1nn(-c2ccnn2C)c2c1[C@@H](c1ccc(Cl)cc1)N(c1cc(C)c3nnc(C)n3c1)C2=O [Example 125] , tested on His-CREBBP (1081-1197) bromodomain (Homo sapiens (Human)).
Ans. 4.68

Qu. Please provide the recorded pIC50 for COc1ncccc1-n1nc(C)c2c1C(=O)N(c1cc(C)c3nnc(C)n3c1)C2c1ccc(Cl)cc1F (stereo not shown) [Example 184] , tested on His-CREBBP (1081-1197) bromodomain (Homo sapiens (Human)).
Ans. 4.62

Qu. Please provide the recorded pIC50 for Cn1cc(N2C(=O)c3c(cnn3C3CC3)C2c2ccc(Cl)cc2)cc(Cl)c1=O (stereo not shown) [Example 35] , tested on His-CREBBP (1081-1197) bromodomain (Homo sapiens (Human)).
Ans. 5.13

Qu. Please provide the recorded pIC50 for CCn1nc(C)c2c1C(=O)N(c1cc(C)c3nnc(C)n3c1)[C@@H]2c1ccc(Cl)cc1F [Example 192] , tested on His-CREBBP (1081-1197) bromodomain (Homo sapiens (Human)).
Ans. 5.15

Qu. Please provide the recorded pIC50 for Cc1nn(C(C)C)c2c1C(c1ccc(Cl)cc1F)N(c1cc(C)c(=O)n(C)c1)C2=O (stereo not shown) [Example 180] , tested on His-CREBBP (1081-1197) bromodomain (Homo sapiens (Human)).
Ans. 5.62

====

Tgt: nuclear BRD4-NUT foci in HCC2494 NUT midline carcinoma cells (Homo sapiens (Human), UniProt O60885+Q86Y26)
Assay method text: Nut-foci formation assay
Condition label: 24 hours, read-out: HCS Brd4-NUT IC50
Reported IC50 by item:
Write the number in nM without appending the unit.

Compound	Assay metric	Unit	Data value
COc1ncc(-n2nc(C)c3c2C(=O)N(c2cc(C)c(=O)n(C)c2)C3c2ccc(Cl)cc2)c(OC)n1 (racemic)	IC50	nM	117
Cc1nn(C(=O)N(C)C)c2c1C(c1ccc(Cl)cc1)N(c1cc(C)c(=O)n(C)c1)C2=O (stereo not drawn)	IC50	nM	149
Cc1cc(N2C(=O)c3nn(C4CC4)c(C)c3C2c2ccc(Cl)cc2)cn2c(C)nnc12 (stereo not drawn)	IC50	nM	17.9
COc1ncccc1-n1nc(C)c2c1C(=O)N(c1cc(C)c3nnn(C)c3n1)C2c1ccc(Cl)cc1 (stereo not drawn)	IC50	nM	43.8
Cc1nn(C2CC2)c2c1C(c1ccc(Cl)cc1)N(c1cc(N(C)C(=O)OC(C)(C)C)c3nnc(C)n3n1)C2=O (stereo not drawn)	IC50	nM	3350
Cc1nn(C2CC2)c2c1C(c1ccc(Cl)cc1)N(c1ccc3nnn(C)c3n1)C2=O (stereo not drawn)	IC50	nM	230
Cc1nn(C2CC2)c2c1[C@@H](c1ccc(Cl)cc1)N(c1cc(C)c3nnc(C)n3n1)C2=O	IC50	nM	7.3
CCOC(=O)N1CC(n2nc(C)c3c2C(=O)N(c2cc(C)c(=O)n(C)c2)C3c2ccc(Cl)cc2)C1 (stereo not drawn)	IC50	nM	106

Qu. Consider the compound CCOc1c2c(nn1C)C(=O)N(c1cc(C)c(=O)n(C)c1)C2c1ccc(Cl)cc1 (stereo not drawn) and give its measured IC50.
Ans. 106

Qu. Consider the compound Cc1nn(C2CC2)c2c1C(c1ccc(Cl)cc1)N(c1cc(C)c3nnn(C)c3n1)C2=O (stereo not drawn) and give its measured IC50.
Ans. 6.42

Qu. Consider the compound CCc1nn(CCO)c2c1C(c1ccc(Cl)cc1)N(c1cc(C)c3onc(C)c3c1)C2=O (stereo not drawn) and give its measured IC50.
Ans. 150

Qu. Consider the compound COc1ncccc1-n1nc(C)c2c1C(=O)N(c1cc(C)c3nnc(C)n3c1)C2c1ccc(Cl)cc1 (stereo not drawn) and give its measured IC50.
Ans. 66.1

Qu. Consider the compound Cc1nn(C2CNC2)c2c1C(c1ccc(Cl)cc1)N(c1cc(C)c3nnc(C)n3c1)C2=O (stereo not drawn) and give its measured IC50.
Ans. 554

Qu. Consider the compound Cc1cc(N2C(=O)c3nn(C(=O)N(C)C)c(C)c3[C@H]2c2ccc(Cl)cc2)cn2c(C)nnc12 and give its measured IC50.
Ans. 27.8

Qu. Consider the compound Cc1cc(N2C(=O)c3c(c(CO)nn3C3CC3)C2c2ccc(Cl)cc2)cn(C)c1=O (stereo not drawn) and give its measured IC50.
Ans. 64.7

====

Tgt: His-Brd2(60-472) (Homo sapiens (Human), UniProt P25440)
Sequence (P25440 60-472): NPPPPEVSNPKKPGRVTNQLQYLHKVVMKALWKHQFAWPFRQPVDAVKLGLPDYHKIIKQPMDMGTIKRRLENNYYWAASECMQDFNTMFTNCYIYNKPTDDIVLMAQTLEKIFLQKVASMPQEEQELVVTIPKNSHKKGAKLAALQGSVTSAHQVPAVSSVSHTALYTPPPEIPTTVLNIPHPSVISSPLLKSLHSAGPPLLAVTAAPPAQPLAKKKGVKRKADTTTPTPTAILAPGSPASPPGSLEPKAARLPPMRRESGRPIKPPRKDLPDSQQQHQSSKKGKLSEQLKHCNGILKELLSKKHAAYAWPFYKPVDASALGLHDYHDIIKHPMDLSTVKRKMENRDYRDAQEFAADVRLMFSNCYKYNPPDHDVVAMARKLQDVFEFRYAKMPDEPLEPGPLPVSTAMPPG
Please note: IC50 exactly at 100 nM is n. Only values below 100 nM get y.

Sample answers from the record:
Compound	Class name
CCc1nn(CCO)c2c1C(c1ccc(Cl)cc1)N(c1cc(C)c3onc(C)c3c1)C2=O (stereo not shown)	n
CCn1nc(C)c2c1C(=O)N(c1cc(C)c3nnc(C)n3c1)[C@@H]2c1ccc(Cl)cc1F	y
Cc1nn(-c2ccnn2C)c2c1C(c1ccc(Cl)cc1)N(c1cc(C)c(=O)n(C)c1)C2=O (racemic)	y
Cc1cc(N2C(=O)c3nn(C4COC4)c(C)c3C2c2ccc(Cl)cc2)cn2c(C)nnc12 (stereo not shown)	n
Cc1nn(C(C)C)c2c1[C@@H](c1ccc(Cl)cc1F)N(c1cc(C)c3nnc(C)n3c1)C2=O	y

Qu. Identify whether the compound CNC(=O)n1nc(C)c2c1C(=O)N(c1cc(C)c3nnc(C)n3c1)C2c1ccc(Cl)cc1 (stereo not shown) records IC50 below 100 nM.
Ans. n

Qu. Identify whether the compound Cn1cc2c(n1)C(=O)N(c1cc(Cl)c(=O)n(C)c1)[C@@H]2c1ccc(Cl)cc1 records IC50 below 100 nM.
Ans. n

Qu. Identify whether the compound CCc1nn(C2CC2)c2c1[C@@H](c1ccc(Cl)cc1)N(c1cc(C)c3nnc(C)n3c1)C2=O records IC50 below 100 nM.
Ans. y

Qu. Identify whether the compound Cc1nn(-c2cncn2C)c2c1C(c1ccc(Cl)cc1)N(c1cc(C)c(=O)n(C)c1)C2=O (stereo not shown) records IC50 below 100 nM.
Ans. n

====

Quick record: IC50, His-Brd3(20-477) (Homo sapiens (Human), UniProt Q15059).
Write the number in µM without appending the unit.

Below: 3 compounds and their reported IC50.
Compound	Data value
Cc1c2c(nn1C)C(=O)N(c1cc(Cl)c(=O)n(C)c1)[C@@H]2c1ccc(Cl)cc1	0.067
Cc1nn(C2COC2)c2c1C(c1ccc(Cl)cc1)N(c1cc(C)c3nnc(C)n3c1)C2=O (stereo not shown)	0.1
COc1ncc(-n2nc3c(c2C)C(c2ccc(Cl)cc2)N(c2cc(Cl)c(=O)n(C)c2)C3=O)c(OC)n1 (stereo not shown)	0.079

Pending compound:
Qu. Consider the compound Cc1cc(N2C(=O)c3c(cnn3C(C)C)C2c2ccc(Cl)cc2)cn(C)c1=O (stereo not shown) and give its measured IC50.
Ans. 0.059
